Entries annotated with measured IC50
Molecular target: KRAS(G12C) (Homo sapiens, UniProt P01116, G12C)
Sequence (P01116 1-188 isoform P01116-2 G12C): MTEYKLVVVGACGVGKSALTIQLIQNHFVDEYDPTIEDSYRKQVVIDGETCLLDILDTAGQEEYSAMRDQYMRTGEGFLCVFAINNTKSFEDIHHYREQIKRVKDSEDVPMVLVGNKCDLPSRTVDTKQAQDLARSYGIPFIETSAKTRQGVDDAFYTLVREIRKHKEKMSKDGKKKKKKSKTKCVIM
Assay: KRAS(G12C)/SOS1 homogeneous time-resolved fluorescence (HTRF) assay
Conditions: absence of GTP, 4° C. for 3 hr, read-out: KRAS (G12C) binding

input.smiles | system.under.test | IC50
C=CC(=O)N1CCN(c2nc(OC[C@@H]3CC[C@H](CN4CCN(C(=O)C5CCN(Cc6ccc(-n7c(C(=O)NCC)nnc7-c7cc(C(C)C)c(O)cc7O)cc6)CC5)CC4)N3C)nc3c2CCN(c2cccc4cccc(C)c24)C3)C[C@@H]1CC#N | KRAS(G12C) (Homo sapiens, UniProt P01116, G12C) | < 100 nM
C=CC(=O)N1CCN(c2nc(OC[C@@H]3C[C@@H](NC(=O)C4CCN(Cc5ccc(-n6c(C(=O)NCCN7CCN(C)CC7)nnc6-c6cc(C(C)C)c(O)cc6O)cc5)CC4)CN3C)nc3c2CCN(c2cccc4cccc(Cl)c24)C3)C[C@@H]1CC#N | KRAS(G12C) (Homo sapiens, UniProt P01116, G12C) | 100 to 1000 nM
C=CC(=O)N1CCN(c2nc(OCC3CN(Cc4ccc(-n5c(O)nnc5-c5cc(C)c(O)cc5O)cc4)C3)nc3c2CCN(c2cccc4cccc(Cl)c24)C3)C[C@@H]1CC#N | KRAS(G12C) (Homo sapiens, UniProt P01116, G12C) | < 100 nM
C=CC(=O)N1CCN(c2nc(OC[C@@H]3C[C@H](N4CCN(Cc5ccc(-n6c(C(=O)NCC)nnc6-c6cc(C(C)C)c(O)cc6O)cc5)CC4)CN3C)nc3c2CCN(c2cccc4ccc(F)c(Cl)c24)C3)C[C@@H]1CC#N | KRAS(G12C) (Homo sapiens, UniProt P01116, G12C) | < 100 nM
